Values were extracted from ChEMBL document CHEMBL1782008.

Recorded measurements of residual iNOS protein level at 10 µM, one per entry
Test system: RAW264.7
Assay: Antiinflammatory activity in mouse RAW264.7 cells assessed as residual LPS-induced iNOS protein level at 10 uM by Western blotting analysis

[
  {
    "compound": "CC(=O)OC[C@]12CC[C@H]3[C@@H](CCC4=CC(=O)C=C[C@@]43C)[C@@H]1CC[C@@H]2[C@H](C)[C@H](O)[C@@H]1OC(=O)[C@H](C)[C@H]1C [PARAMINABEOLIDE C]",
    "residual iNOS protein level at 10 µM (%)": 37.9
  },
  {
    "compound": "CC1=C(C)C(=O)O[C@@H]([C@@H](C)[C@H]2CC[C@H]3[C@@H]4CCC5=CC(=O)C=C[C@]5(C)[C@H]4CC[C@]23C)C1 [MINABEOLIDE 1]",
    "residual iNOS protein level at 10 µM (%)": 9.6
  },
  {
    "compound": "CC(=O)OC[C@]12CC[C@H]3[C@@H](CCC4=CC(=O)C=C[C@@]43C)[C@@H]1CC[C@@H]2[C@H](C)[C@H]1CC[C@H](C)C(=O)O1 [MINABEOLIDE 5]",
    "residual iNOS protein level at 10 µM (%)": 6.3
  }
]
